- Assay details: Drug accumulation in human NCI-H292 cells at 3 to 10 uM incubated for 3 hrs by LC-MS analysis relative to azithromycin
- Format: ADME, cell-based
- Run parameters: nci-h292, 3 h
Experimental readout: Drug uptake (%)
Kindly provide the numeric value in % only, without the unit symbol.

See these solved cases before continuing.
>>> assay_value("CC[C@H]1OC(=O)[C@H](C)[C@@H](O)[C@H](C)[C@@H](O)[C@](C)(O)C[C@@H](C)CN(C)[C@H](C)[C@@H](O)[C@]1(C)O")
13
>>> assay_value("CC[C@H]1OC(=O)[C@H](C)[C@@H](O[C@H]2C[C@@](C)(OC)[C@@H](OCCCNC(=O)C3CCC3)[C@H](C)O2)[C@H](C)[C@@H](O[C@@H]2O[C@H](C)C[C@H](N(C)C)[C@H]2O)[C@](C)(O)C[C@@H](C)CN(C)[C@H](C)[C@@H](O)[C@]1(C)O")
51
>>> assay_value("CC[C@H]1OC(=O)[C@H](C)[C@@H](O)[C@H](C)[C@@H](O[C@@H]2O[C@H](C)C[C@H](N(C)C)[C@H]2O)[C@](C)(O)C[C@@H](C)CN(C)[C@H](C)[C@@H](O)[C@]1(C)O")
56
>>> assay_value("CCCCCCCC(=O)NCCCO[C@H]1[C@H](C)O[C@@H](O[C@H]2[C@H](C)[C@@H](O[C@@H]3O[C@H](C)C[C@H](N(C)C)[C@H]3O)[C@](C)(OC)C[C@@H](C)C(=O)[C@H](C)[C@@H](O)[C@](C)(O)[C@@H](CC)OC(=O)[C@@H]2C)C[C@@]1(C)OC")
281
>>> assay_value("CC[C@H]1OC(=O)[C@H](C)[C@@H](OCCCNC(=O)c2c(C)nn(C)c2Cl)[C@H](C)[C@@H](O[C@@H]2O[C@H](C)C[C@H](N(C)C)[C@H]2O)[C@](C)(O)C[C@@H](C)CN(C)[C@H](C)[C@@H](O)[C@]1(C)O")
59
>>> assay_value("CC[C@H]1OC(=O)[C@H](C)[C@@H](O[C@H]2C[C@@](C)(OC)[C@@H](OCCCNC(=O)c3c(C)nn(C)c3Cl)[C@H](C)O2)[C@H](C)[C@@H](O[C@@H]2O[C@H](C)C[C@H](N(C)C)[C@H]2O)[C@](C)(O)C[C@@H](C)CN(C)[C@H](C)[C@@H](O)[C@]1(C)O")
60

input: Check the records and state Drug uptake for CCCCCCCC(=O)NCCCN1C[C@H](C)C[C@@](C)(O)[C@H](O)[C@@H](C)[C@H](O)[C@@H](C)C(=O)O[C@H](CC)[C@@](C)(O)[C@H](O)[C@H]1C
output: 63

input: Using the record for CC[C@H]1OC(=O)[C@H](C)[C@@H](O[C@H]2C[C@@](C)(OC)[C@@H](O)[C@H](C)O2)[C@H](C)[C@@H](O[C@@H]2O[C@H](C)C[C@H](N(C)C)[C@H]2O)[C@](C)(O)C[C@@H](C)CN(CCCNC(=O)COC)[C@H](C)[C@@H](O)[C@]1(C)O , state its measured Drug uptake.
output: 2

====

- Assay details: Drug accumulation in human NCI-H292 cells at 3 to 10 uM incubated for 3 hrs by LC-MS analysis relative to azithromycin
- Format: ADME, cell-based
- Run parameters: nci-h292, 3 h
Experimental readout: Drug uptake (%)
Give the value in % but do not write % after it.

>>> assay_value("CC[C@H]1OC(=O)[C@H](C)[C@@H](O)[C@H](C)[C@@H](O[C@@H]2O[C@H](C)C[C@H](N(C)C)[C@H]2O)[C@](C)(OC)C[C@@H](C)/C(=N\\O)[C@H](C)[C@@H](O)[C@]1(C)O")
17
>>> assay_value("CC[C@H]1OC(=O)[C@H](C)[C@@H](O[C@H]2C[C@@](C)(OC)[C@@H](O)[C@H](C)O2)[C@H](C)[C@@H](O[C@@H]2O[C@H](C)C[C@H](N(C)C)[C@H]2O)[C@](C)(O)C[C@@H](C)CN(CCCNC(=O)c2c(C)nn(C)c2Cl)[C@H](C)[C@@H](O)[C@]1(C)O")
5
>>> assay_value("CC[C@H]1OC(=O)[C@H](C)[C@@H](O[C@H]2C[C@@](C)(OC)[C@@H](O)[C@H](C)O2)[C@H](C)[C@@H](O[C@@H]2O[C@H](C)C[C@H](N(C)C)[C@H]2O)[C@](C)(O)C[C@@H](C)CN(C)[C@H](C)[C@@H](O)[C@]1(C)O [AZITHROMYCIN]")
100
>>> assay_value("CC[C@H]1OC(=O)[C@H](C)[C@@H](O[C@H]2C[C@@](C)(OC)[C@@H](OCCCNC(=O)COC)[C@H](C)O2)[C@H](C)[C@@H](O[C@@H]2O[C@H](C)C[C@H](N(C)C)[C@H]2O)[C@](C)(O)C[C@@H](C)CN(C)[C@H](C)[C@@H](O)[C@]1(C)O")
9
>>> assay_value("CC[C@H]1OC(=O)[C@H](C)[C@@H](O[C@H]2C[C@@](C)(OC)[C@@H](O)[C@H](C)O2)[C@H](C)[C@@H](O[C@@H]2O[C@H](C)C[C@H](N(C)C)[C@H]2OCCCNC(=O)C2CCC2)[C@](C)(O)C[C@@H](C)CN(C)[C@H](C)[C@@H](O)[C@]1(C)O")
124
>>> assay_value("CC[C@H]1OC(=O)[C@H](C)[C@@H](O[C@H]2C[C@@](C)(OC)[C@@H](OCCCNC(C)=O)[C@H](C)O2)[C@H](C)[C@@H](O[C@@H]2O[C@H](C)C[C@H](N(C)C)[C@H]2O)[C@](C)(O)C[C@@H](C)CN(C)[C@H](C)[C@@H](O)[C@]1(C)O")
6

input: Please report the measured Drug uptake for CC[C@H]1OC(=O)[C@H](C)[C@@H](O[C@H]2C[C@@](C)(OC)[C@@H](O)[C@H](C)O2)[C@H](C)[C@@H](O[C@@H]2O[C@H](C)C[C@H](N(C)C)[C@H]2O)[C@](C)(O)C[C@@H](C)CN(C)[C@H](C)[C@@H](OCCCNC(C)=O)[C@]1(C)O
output: 7

input: Using the record for CCC(=O)NCCCN1C[C@H](C)C[C@@](C)(O)[C@H](O[C@@H]2O[C@H](C)C[C@H](N(C)C)[C@H]2O)[C@@H](C)[C@H](O[C@H]2C[C@@](C)(OC)[C@@H](O)[C@H](C)O2)[C@@H](C)C(=O)O[C@H](CC)[C@@](C)(O)[C@H](O)[C@H]1C , state its measured Drug uptake.
output: 0

====

- Assay details: Chromatographic hydrophobicity, logD of the compound at pH 7.4 by fast-gradient RP-HPLC method
- Assay type: physicochemical
- Run parameters: buffer
Experimental readout: chromatographic logD
Enter a number only.

>>> assay_value("CC[C@H]1OC(=O)[C@H](C)[C@@H](O[C@H]2C[C@@](C)(OC)[C@@H](O)[C@H](C)O2)[C@H](C)[C@@H](O[C@@H]2O[C@H](C)C[C@H](N(C)CCCNC(C)=O)[C@H]2O)[C@](C)(OC)C[C@@H](C)C(=O)[C@H](C)[C@@H](O)[C@]1(C)O")
3.08
>>> assay_value("CC[C@H]1OC(=O)[C@H](C)[C@@H](O[C@H]2C[C@@](C)(OC)[C@@H](O)[C@H](C)O2)[C@H](C)[C@@H](O[C@@H]2O[C@H](C)C[C@H](N(C)C)[C@H]2O)[C@](C)(O)C[C@@H](C)CN(C)[C@H](C)[C@@H](OCCCNC(=O)c2c(C)nn(C)c2Cl)[C@]1(C)O")
3.01
>>> assay_value("CCCCCCCC(=O)NCCCO[C@@H]1[C@@H](C)N(C)C[C@H](C)C[C@@](C)(O)[C@H](O[C@@H]2O[C@H](C)C[C@H](N(C)C)[C@H]2O)[C@@H](C)[C@H](O[C@H]2C[C@@](C)(OC)[C@@H](O)[C@H](C)O2)[C@@H](C)C(=O)O[C@H](CC)[C@@]1(C)O")
5.18

// switching to the query molecule
input: Find the measured chromatographic logD of CC[C@H]1OC(=O)[C@H](C)[C@@H](O[C@H]2C[C@@](C)(OC)[C@@H](OCCCNC(=O)COC)[C@H](C)O2)[C@H](C)[C@@H](O[C@@H]2O[C@H](C)C[C@H](N(C)C)[C@H]2O)[C@](C)(O)C[C@@H](C)CN(C)[C@H](C)[C@@H](O)[C@]1(C)O and report it.
output: 2.16

====

- Assay details: Drug accumulation in human NCI-H292 cells at 3 to 10 uM incubated for 3 hrs by LC-MS analysis relative to azithromycin
- Type: ADME, cell-based
- Run parameters: nci-h292, 3 h
The compounds listed here are annotated with their Drug uptake.
// return numeric value only (unit: %, not printed)

These recorded examples may help you get a feel for the data.
>>> assay_value("CC[C@H]1OC(=O)[C@H](C)[C@@H](O[C@H]2C[C@@](C)(OC)[C@@H](O)[C@H](C)O2)[C@H](C)[C@@H](O[C@@H]2O[C@H](C)C[C@H](N(C)C)[C@H]2O)[C@](C)(O)C[C@@H](C)CN(C)[C@H](C)[C@@H](OCCCNC(=O)c2c(C)nn(C)c2Cl)[C@]1(C)O")
51
>>> assay_value("CC[C@H]1OC(=O)[C@H](C)[C@@H](OCCCNC(=O)COC)[C@H](C)[C@@H](O[C@@H]2O[C@H](C)C[C@H](N(C)C)[C@H]2O)[C@](C)(O)C[C@@H](C)CN(C)[C@H](C)[C@@H](O)[C@]1(C)O")
14
>>> assay_value("CCCCC(=O)NCCCN(C)[C@H]1C[C@@H](C)O[C@@H](O[C@@H]2[C@@H](C)[C@H](O[C@H]3C[C@@](C)(OC)[C@@H](O)[C@H](C)O3)[C@@H](C)C(=O)O[C@H](CC)[C@@](C)(O)[C@H](O)[C@@H](C)N(C)C[C@H](C)C[C@@]2(C)O)[C@@H]1O")
75

The record that follows has no Drug uptake shown yet.
input: Read the entry CC[C@H]1OC(=O)[C@H](C)[C@@H](O[C@H]2C[C@@](C)(OC)[C@@H](O)[C@H](C)O2)[C@H](C)[C@@H](O[C@@H]2O[C@H](C)C[C@H](N(C)C)[C@H]2O)[C@](C)(OC)C[C@@H](C)C(=O)[C@H](C)[C@@H](OCCCNC(C)=O)[C@]1(C)O and write its reported Drug uptake.
output: 11
